Target: NDM-5 (Klebsiella pneumoniae, UniProt C7C422, M154L/V88L)
Sequence (C7C422 29-270 V88L/M154L): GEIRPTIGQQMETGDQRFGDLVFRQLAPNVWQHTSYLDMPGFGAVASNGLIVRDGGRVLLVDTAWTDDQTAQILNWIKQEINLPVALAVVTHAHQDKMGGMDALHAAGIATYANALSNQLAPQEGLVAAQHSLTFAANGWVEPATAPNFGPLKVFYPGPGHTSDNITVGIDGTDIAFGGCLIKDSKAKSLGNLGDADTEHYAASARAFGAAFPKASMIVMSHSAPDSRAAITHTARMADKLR
Assay: Enzyme activity test (FC5 fluorescent substrate), NDM-5
Format: biochemical
Experimental: Compound stock solution: the compound was prepared as a 50 mM DMSO stock solution. […] After aliquoting, the compound stock solutions were stored at −20° C. […] g) The incubated 384-well plate was taken out and FC-5 was added to wells […]. The 384-well plate was centrifuged rapidly and promptly transferred to a microplate reader for reading. […]
measurement-kind: pIC50
pIC50 here is simply -log10 of the concentration when that concentration is written in mol/L.

input: Requested read-out: pIC50. Entry: CC(C)Sc1ccc2c(c1C(=O)O)OB(O)[C@@H]1C[C@H]21
output: 8.54

input: Requested read-out: pIC50. Entry: O=C(O)c1c(S[C@H]2CCOC2)ccc2c1OB(O)[C@@H]1C[C@H]21
output: 8.64

input: Requested read-out: pIC50. Entry: CN1CC(CCSc2ccc3c(c2C(=O)O)OB(O)[C@@H]2C[C@H]32)C1
output: 7.83

input: Requested read-out: pIC50. Entry: CSc1ccc2c(c1C(=O)O)OB(O)[C@@H]1C[C@H]21
output: 7.82

---

For each of the molecules below, state its pIC50.
Molecular target: VIM-1 (Pseudomonas aeruginosa)
Assay: Enzyme activity test (FC5 fluorescent substrate), VIM-1
Settings: enzyme 70 pM, substrate FC5 10 μM
Method: Compound stock solution: the compound was prepared as a 50 mM DMSO stock solution. […] After aliquoting, the compound stock solutions were stored at −20° C. […] g) The incubated 384-well plate was taken out and FC-5 was added to wells […]. The 384-well plate was centrifuged rapidly and promptly transferred to a microplate reader for reading. […]
pIC50 here is simply -log10 of the concentration when that concentration is written in mol/L.

input: Requested read-out: pIC50. Entry: CC(C)Sc1ccc2c(c1C(=O)O)OB(O)[C@@H]1C[C@H]21
output: 10.00

input: Requested read-out: pIC50. Entry: CSc1ccc2c(c1C(=O)O)OB(O)[C@@H]1C[C@H]21
output: 8.82

input: Requested read-out: pIC50. Entry: NCCNC1CCC(CC(=O)N[C@H]2Cc3cccc(C(=O)O)c3OB2O)CC1 (stereo partly drawn) [VNRX-5133, reference compound]
output: 7.48

input: Requested read-out: pIC50. Entry: CN1CC(CCSc2ccc3c(c2C(=O)O)OB(O)[C@@H]2C[C@H]32)C1
output: 8.11

---

Test system: Acinetobacter baumannii WX-AB013
Experiment: MIC test of compounds in combination with antibiotics, Acinetobacter baumannii WX-AB013
Settings: Meropenem + compound (8 μg/mL)
measurement-kind: MIC of meropenem in combination with compound, Acinetobacter baumannii WX-AB013 (µg/mL)
Give the number; µg/mL is assumed, so skip it.

input: Requested read-out: MIC of meropenem in combination with compound, Acinetobacter baumannii WX-AB013. Entry: C[C@H](Sc1ccc2c(c1C(=O)O)OB(O)[C@@H]1C[C@H]21)[C@@H]1CCCO1 [Compound 18-a]
output: 4

input: Requested read-out: MIC of meropenem in combination with compound, Acinetobacter baumannii WX-AB013. Entry: CC(Sc1ccc2c(c1C(=O)O)OB(O)C1CC21)C1CC1 (single isomer, unassigned) [Compound 16-a]
output: 4

input: Requested read-out: MIC of meropenem in combination with compound, Acinetobacter baumannii WX-AB013. Entry: CC(Sc1ccc2c(c1C(=O)O)OB(O)C1CC21)C1CC1 (single isomer, unassigned) [Compound 16-d]
output: 4

input: Requested read-out: MIC of meropenem in combination with compound, Acinetobacter baumannii WX-AB013. Entry: CC(Sc1ccc2c(c1C(=O)O)OB(O)C1CC21)C1CC1 (single isomer, unassigned) [Compound 16-b]
output: 4

input: Requested read-out: MIC of meropenem in combination with compound, Acinetobacter baumannii WX-AB013. Entry: NC1COCC1Sc1ccc2c(c1C(=O)O)OB(O)C1CC21 (single isomer, unassigned) [Compound 11_P1]
output: 2

input: Requested read-out: MIC of meropenem in combination with compound, Acinetobacter baumannii WX-AB013. Entry: CC(Sc1ccc2c(c1C(=O)O)OB(O)C1CC21)C1CCOCC1 (single isomer, unassigned) [Compound 17-a]
output: 8

input: Requested read-out: MIC of meropenem in combination with compound, Acinetobacter baumannii WX-AB013. Entry: NC1COCC1Sc1ccc2c(c1C(=O)O)OB(O)C1CC21 (single isomer, unassigned) [Compound 10_P2]
output: 1

input: Requested read-out: MIC of meropenem in combination with compound, Acinetobacter baumannii WX-AB013. Entry: C[C@@H](Sc1ccc2c(c1C(=O)O)OB(O)[C@H]1C[C@@H]21)[C@@H]1CCCO1 [Compound 18-d]
output: 4

input: Requested read-out: MIC of meropenem in combination with compound, Acinetobacter baumannii WX-AB013. Entry: CC(Sc1ccc2c(c1C(=O)O)OB(O)C1CC21)C1CC1 (single isomer, unassigned) [Compound 16-c]
output: 4

input: Requested read-out: MIC of meropenem in combination with compound, Acinetobacter baumannii WX-AB013. Entry: O=C(O)c1c(SCCN2CCOCC2)ccc2c1OB(O)C1CC21 (single isomer, unassigned) [Compound 15-a]
output: 4

input: Requested read-out: MIC of meropenem in combination with compound, Acinetobacter baumannii WX-AB013. Entry: NC1COCC1Sc1ccc2c(c1C(=O)O)OB(O)C1CC21 (single isomer, unassigned) [Compound 11_P2]
output: 2

input: Requested read-out: MIC of meropenem in combination with compound, Acinetobacter baumannii WX-AB013. Entry: C[C@H](Sc1ccc2c(c1C(=O)O)OB(O)[C@@H]1C[C@H]21)C1CN(C)C1 [Compound 20-a]
output: 2

input: Requested read-out: MIC of meropenem in combination with compound, Acinetobacter baumannii WX-AB013. Entry: O=C(O)c1c(SCCN2CCOCC2)ccc2c1OB(O)C1CC21 (single isomer, unassigned) [Compound 15-b]
output: 4

input: Requested read-out: MIC of meropenem in combination with compound, Acinetobacter baumannii WX-AB013. Entry: NC1COCC1Sc1ccc2c(c1C(=O)O)OB(O)C1CC21 (single isomer, unassigned) [Compound 10_P1]
output: 2

input: Requested read-out: MIC of meropenem in combination with compound, Acinetobacter baumannii WX-AB013. Entry: CC(Sc1ccc2c(c1C(=O)O)OB(O)C1CC21)C1CCOCC1 (single isomer, unassigned) [Compound 17-b]
output: 16
